Listed here: items and their measured log10(TGI).
Test system: NCI-H226 lung
PROTOCOL DETAILS: NCI tumour cell line growth inhibition, 48 h
ASSAY ENDPOINT: log10(TGI) (log10 of the value in µM)

NCCCn1c2c(c3cc4c(cc3c1=O)OCO4)C(=O)c1ccccc1-2 ... 1.39
CC(=O)c1c(-c2ccccc2)c(-c2ccc(OCCN(C)C)cc2)n2ccccc12 ... 1.58
NC1=NC(c2ccccc2)CC(c2cc(Cl)cc(Br)c2O)=N1 (centres undefined) ... 1.54
Clc1ccc2c(NCCNc3ccnc4cc(Cl)ccc34)ccnc2c1 ... 1.80
O=C(Nc1ccc(Cl)cc1)c1cc2cc(F)ccc2cc1O ... 0.90
N=C1C(c2nc3ccccc3s2)=C(O)CN1c1ccc(Cl)cc1Cl ... 1.61
CC(C)Cc1ccc(C(C)/C=C2\CCC(CN3CCCC3)C2=O)cc1 (centres undefined) ... 1.52
O=C(NCCCCNCCCNC(=O)c1cc(-c2ccccc2)nc2ccccc12)c1cc(-c2ccccc2)nc2ccccc12 ... 0.51

----------
Each entry below lists one item and its recorded TGI value.
Tested on: PC-3 prostate
PROTOCOL DETAILS: NCI tumour cell line growth inhibition, 48 h
ASSAY ENDPOINT: TGI

O=c1c(O)c(-c2cc(O)c(O)cc2O)oc2cc(O)c(C3OC(CO)C(O)C(O)C3O)c(O)c12 (configuration not stated) ... > 100 µM
CSc1ccc(/C=C2\N=C(c3ccccc3)N(c3nc4c(Cl)cc(Cl)cc4s3)C2=O)cc1 ... 43.3 µM
Cc1ccc(O)c(-c2csc(NCN3CCN(CNc4nc(-c5cc(C)ccc5O)cs4)CC3)n2)c1 ... > 100 µM
COc1ccc(-c2nc(N)c3ncn(C4OC(CO)C(O)C4O)c3n2)cc1 (configuration not stated) ... > 100 µM
O=C1c2cccc3cc([N+](=O)[O-])cc(c23)C(=O)N1CCN1CCCC1 ... 12.5 µM
COc1cccc(-c2nc(-c3ccc(NC(=O)c4ccccc4)cc3)[nH]c2-c2ccnc(Br)c2)c1 ... > 100 µM
COc1cc(C2SCC(=O)N2c2ccc(Cl)cc2)cc(I)c1O (configuration not stated) ... > 100 µM
O=C1OC(C2OC(=O)c3cc(O)c(O)c(O)c3-c3c(O)c(O)c4oc(=O)c5c(c(O)c(O)c6oc(=O)c3c4c65)-c3c(cc(O)c(O)c3O)C(=O)OCC2O)C2OC(=O)c3c(c(O)c(O)c(O)c3[C@H]2O)-c2c1cc(O)c(O)c2O (some centres not stated) ... > 100 µM
CC(C)(C)OC(=O)Nc1cc(-c2ccccc2)co1 ... > 100 µM
C[C@@H](Oc1cc(NS(=O)(=O)N2CCC2)nc(SCc2cccc(F)c2F)n1)[C@@H](O)CO ... > 100 µM
O=c1[nH]c2ccc(CC(=S)N3CCN(c4ccccc4)CC3)cc2o1 ... > 100 µM
COc1ccc(CCc2ccc(O)c(C(=O)O)c2)cc1OC ... > 100 µM
CSc1nc(O)c(/C=C2\C=Nc3ccccc32)[nH]1 ... > 100 µM
COC1CC2C=CC3C4OC2(/C(C)=C/C(C)C(C(C)O)OC1=O)C3C(O)C(C)C4OC(=O)c1ccc[nH]1 (configuration not stated) ... > 100 µM
O=C(OCC1CCCN2CCCCC12)c1ccncc1 (configuration not stated) ... > 100 µM
CC1=C(C(=O)Nc2ccccc2)C(c2ccc(C)o2)C(C#N)=C(SCc2ccccc2)N1 (configuration not stated) ... > 100 µM
COc1cc(/C=C2\CN(S(=O)(=O)c3ccc(C)cc3)C/C(=C\c3cc(CN4CCCCC4)c(O)c(OC)c3)C2=O)cc(CN2CCCCC2)c1O ... 4.75 µM
COc1ccc(N=C2C(=Nc3ccc(OC)cc3)N(S(=O)(=O)c3ccccc3)C(=S)N2c2ccc(OC)cc2)cc1 ... > 100 µM
CNC(=O)c1cncc(/C=C/c2c(C)cccc2C)c1 ... > 25 µM
O=C1CC(c2ccc[nH]2)=NN1c1ccccc1 ... > 100 µM
CCCC#CC(O)(C(=O)OC1CCN(C)CC1)C1CCCCC1 (configuration not stated) ... > 100 µM
CC1(C)CCC2(C(=O)O)CC[C@]3(C)C(=CCC4C5(C)CC[C@H](OC6OC(C(=O)O)C(O)C(OC7OC(CO)C(O)C(O)C7O)C6OC6OC(CO)C(O)C(O)C6O)C(C)(C)C5CCC43C)C2C1 (some centres not stated) ... 38.5 µM
COC(=O)c1ccc(CCc2cc(O)c(Br)cc2O)cc1 ... 20.6 µM
O=C(N/N=C\c1ccc([N+](=O)[O-])cc1)Nc1cccc2ccccc12 ... > 71.4 µM
O=c1[nH]c(Nc2cccc(Br)c2)nc2nc[nH]c12 ... > 100 µM
N#Cc1nn(C2OC(COC(=O)c3ccccc3)C(OC(=O)c3ccccc3)C2OC(=O)c2ccccc2)c2nc[nH]c(=O)c12 (configuration not stated) ... > 100 µM
CCOC(=O)C#Cc1ccc([N+](=O)[O-])cc1 ... 8.54 µM
